molecular target: HA of A/Wyoming/03/03 (H3N2) virus (influenza A virus); assay: cell-based or functional assay
Listed here: items and their measured Neutralization IC50, H3-Wy03.
result.type: Neutralization IC50, H3-Wy03 (µg/mL)

Antibody 3 (antibody, V domains shown) VH: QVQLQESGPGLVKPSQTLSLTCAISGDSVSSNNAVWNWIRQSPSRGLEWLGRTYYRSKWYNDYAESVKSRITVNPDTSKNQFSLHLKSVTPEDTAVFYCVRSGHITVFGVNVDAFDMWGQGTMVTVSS VL: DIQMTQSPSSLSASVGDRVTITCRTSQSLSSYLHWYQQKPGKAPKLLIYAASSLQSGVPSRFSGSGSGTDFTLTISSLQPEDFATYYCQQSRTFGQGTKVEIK : 0.63
Antibody 5 (antibody, V domains shown) VH: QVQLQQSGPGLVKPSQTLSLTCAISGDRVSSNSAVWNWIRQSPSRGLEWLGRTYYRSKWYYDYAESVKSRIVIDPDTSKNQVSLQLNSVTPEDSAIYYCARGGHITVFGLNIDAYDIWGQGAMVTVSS VL: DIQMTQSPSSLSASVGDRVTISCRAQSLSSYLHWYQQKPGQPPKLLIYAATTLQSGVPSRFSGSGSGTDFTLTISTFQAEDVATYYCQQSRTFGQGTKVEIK : 0.77
Antibody 10 (antibody, V domains shown) VH: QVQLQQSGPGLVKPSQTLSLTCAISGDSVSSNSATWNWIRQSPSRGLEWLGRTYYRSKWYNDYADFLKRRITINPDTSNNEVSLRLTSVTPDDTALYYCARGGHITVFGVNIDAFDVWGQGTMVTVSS VL: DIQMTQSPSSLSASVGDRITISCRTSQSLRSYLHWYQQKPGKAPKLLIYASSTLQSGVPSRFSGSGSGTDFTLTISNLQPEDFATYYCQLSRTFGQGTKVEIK : 1.52
